- System: pSTAT5/GM-CSF
- assay-name: pSTAT5/GM-CSF cellular assay (JAK2 selectivity)
- Format: cell-based
The compounds listed here are annotated with their IC50.

compound	IC50
CC(=O)Nc1cc(Nc2cc(OCCO)cc(S(C)(=O)=O)n2)c(-c2ccn(C(C)C)n2)cn1 [Example M28]	> 10 µM
COC1CN(c2cc(Nc3cc(NC(C)=O)ncc3-c3ccc4c(n3)OCC(C)(C)O4)nc(S(C)(=O)=O)c2)C1 [Example Q49]	0.379 µM
CC(=O)Nc1cc(Nc2cc(OC(C)C)cc(S(C)(=O)=O)n2)c(-c2ccc(C(C)(C)O)cn2)cn1 [Example H2]	> 10 µM
CC(=O)Nc1cc(Nc2cc(-c3cscn3)cc(S(C)(=O)=O)n2)c(-c2ccc3c(n2)OCC(C)(C)O3)cn1 [Example Q119]	1.15 µM
CC(=O)Nc1cc(Nc2cc(C#N)cc(S(C)(=O)=O)c2)c(-c2ccc(C(C)(C)O)cn2)cn1 [Example H20]	> 10 µM
CC(=O)Nc1cc(Nc2cc(Oc3ccccc3)cc(S(C)(=O)=O)n2)c(-c2ccn(C)n2)cn1 [Example J39]	> 10 µM
CCOc1cc(Nc2cc(NC(C)=O)ncc2-c2ccn(C)n2)nc(S(C)(=O)=O)c1 [Example J43]	> 10 µM

* * *

- tgt: TYK2-JH2 (aa 575-869, in-house) protein (Homo sapiens, UniProt P29597)
- Construct: TYK2-JH2 (aa 575-869, in-house) protein; made in house
- Sequence (P29597 575-869): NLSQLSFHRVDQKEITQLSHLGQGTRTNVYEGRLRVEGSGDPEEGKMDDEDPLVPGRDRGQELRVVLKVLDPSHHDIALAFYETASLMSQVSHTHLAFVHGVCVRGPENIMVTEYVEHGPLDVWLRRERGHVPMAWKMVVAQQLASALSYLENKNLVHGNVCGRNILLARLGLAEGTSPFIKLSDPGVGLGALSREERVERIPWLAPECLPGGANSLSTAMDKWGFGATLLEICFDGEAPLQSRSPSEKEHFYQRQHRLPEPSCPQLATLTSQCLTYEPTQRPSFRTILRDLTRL
- assay-name: TYK2-JH2 biochemical assay (HTRF probe displacement)
- Assay type: binding
- conditions: Biochemical assay; read-out: TYK2-JH2 IC50
pIC50: −log10 of the molar value.
The molecules listed here are annotated with their pIC50.

molecule	pIC50
CC(=O)Nc1cc(Nc2cc(OC(C)C)cc(S(C)(=O)=O)n2)c(-c2ccn([C@H]3CCOC3)n2)cn1 [Example M33]	10.57
COc1ccncc1-c1cc(Nc2cc(NC(C)=O)ncc2-c2ccc3c(n2)OCC(C)(C)O3)nc(S(C)(=O)=O)c1 [Example Q101]	10.52
COCCn1ccc(-c2cnc(NC(C)=O)cc2Nc2cc(C)cc(S(C)(=O)=O)n2)n1 [Example A15]	10.40
COc1cc(Nc2cc(NC(C)=O)ncc2-c2ccc(C(C)(C)O)cn2)cc(S(C)(=O)=O)c1 [Example H4]	10.33
CC(=O)Nc1cc(Nc2nc(S(C)(=O)=O)ccc2C)c(-c2ccc(C(C)(C)O)cn2)cn1 [Example H32]	10.64
CC(=O)Nc1cc(Nc2cc(Oc3ccccc3)cc(S(C)(=O)=O)n2)c(-c2ccn(C)n2)cn1 [Example J39]	10.44
CC(=O)Nc1cc(Nc2cccc(S(C)(=O)=O)n2)c(C2=NC(C)(C)CS2)cn1 [Example R1]	10.39
CC(=O)Nc1cc(Nc2cc(OC(C)C)cc(S(C)(=O)=O)n2)c(-c2ccn(C3CC3)n2)cn1 [Example M2]	10.49

* * *

The compounds listed here are annotated with their log10(IC50).
- tgt: TYK2-JH2 (aa 575-869, in-house) protein (Homo sapiens)
- Construct: TYK2-JH2 (aa 575-869, in-house) protein; made in house
- assay-name: TYK2-JH2 biochemical assay (HTRF probe displacement)
- Type: binding
- conditions: Biochemical assay; read-out: TYK2-JH2 IC50
recorded-endpoint: log10(IC50) (log10 of the value in pM)

compound	quantitative-result
CC(=O)Nc1cc(Nc2cc(OC(C)C)cc(S(C)(=O)=O)n2)c(-c2ccn([C@@H]3CCOC3)n2)cn1	1.38
CC(=O)Nc1cc(Nc2cc(-c3cscn3)cc(S(C)(=O)=O)n2)c(-c2ccc3c(n2)OCC(C)(C)O3)cn1	1.49
CC(=O)Nc1cc(Nc2cc(OCC3COCCO3)cc(S(C)(=O)=O)n2)c(-c2ccc3c(n2)OC(C)(C)CO3)cn1 (stereo not drawn)	1.52
CC(=O)Nc1cc(Nc2cccc(S(C)(=O)=O)c2)c(C2CCCO2)cn1 (stereo not drawn)	3.72
CC(=O)Nc1cc(Nc2cc(OCC3COC3)cc(S(C)(=O)=O)n2)c(-c2ccn(C)n2)cn1	1.40
CC(=O)Nc1cc(Nc2cc(C)c(F)c(S(C)(=O)=O)n2)c(-c2ccc3c(n2)OC(C)(C)CO3)cn1	1.81
CC(=O)Nc1cc(Nc2cc(-c3cnccc3C)cc(S(C)(=O)=O)n2)c(-c2ccc3c(n2)OCC(C)(C)O3)cn1	1.67
COc1ccc(-c2cnc(NC(C)=O)cc2Nc2cc(OC(C)C)cc(S(C)(=O)=O)n2)nn1	1.51
CC(=O)Nc1cc(Nc2cc(OC(C)C)cc(S(C)(=O)=O)n2)c(-n2cccn2)cn1	1.57
CC(=O)Nc1cc(Nc2cc(C(F)(F)F)cc(S(C)(=O)=O)c2)c(-c2ccn([C@@H]3CCOC3)n2)cn1	1.87
CC(=O)Nc1cc(Nc2ccccc2S(C)(=O)=O)c(-c2ccccn2)cn1	5.07
COCCOc1cc(Nc2cc(NC(C)=O)ncc2-c2ccn(C)n2)nc(S(C)(=O)=O)c1	1.23
CC(=O)Nc1cc(Nc2cc(C#N)cc(S(C)(=O)=O)c2)c(-c2ccc(C(C)(C)O)cn2)cn1	1.66
CC(=O)Nc1cc(Nc2cccc(S(C)(=O)=O)n2)c(-c2ccn(C(C)C)n2)cn1	1.43
COc1cc(Nc2cc(NC(C)=O)ncc2-c2ccn([C@@H]3CCOC3)n2)nc(S(C)(=O)=O)c1	1.56

* * *

- tgt: TYK2-JH2 (aa 575-869, in-house) protein (Homo sapiens, UniProt P29597)
- Construct: TYK2-JH2 (aa 575-869, in-house) protein; made in house
- assay-name: TYK2-JH2 biochemical assay (HTRF probe displacement)
- Format: binding
- conditions: Biochemical assay; read-out: TYK2-JH2 IC50
pIC50: −log10 of the molar value.
recorded-endpoint: pIC50

molecule	tgt	recorded-endpoint	quantitative-result
CCn1ccc(-c2cnc(NC(C)=O)cc2Nc2nc(S(C)(=O)=O)ccc2OC(C)C)n1 [Example M21]	TYK2-JH2 (aa 575-869, in-house) protein (Homo sapiens, UniProt P29597)	pIC50	10.46
CC(=O)Nc1cc(Nc2cc(OCC(C)O)cc(S(C)(=O)=O)n2)c(-c2ccc(C(C)(C)O)cn2)cn1 (stereo not drawn) [Example H26]	TYK2-JH2 (aa 575-869, in-house) protein (Homo sapiens, UniProt P29597)	pIC50	10.41
CC[C@H](C)Oc1cc(Nc2cc(NC(C)=O)ncc2-c2ccn(C)n2)nc(S(C)(=O)=O)c1 [Example J60]	TYK2-JH2 (aa 575-869, in-house) protein (Homo sapiens, UniProt P29597)	pIC50	10.68
CC(=O)Nc1cc(Nc2cccc(S(C)(=O)=O)c2)c(-c2ccn(C)n2)cn1 [Example J6]	TYK2-JH2 (aa 575-869, in-house) protein (Homo sapiens, UniProt P29597)	pIC50	10.48
COCc1cc(Nc2cc(NC(C)=O)ncc2-c2ccn(C)n2)cc(S(C)(=O)=O)c1 [Example J34]	TYK2-JH2 (aa 575-869, in-house) protein (Homo sapiens, UniProt P29597)	pIC50	10.17
CO[C@H](C)COc1cc(Nc2cc(NC(C)=O)ncc2-c2cc(C)n(C)n2)nc(S(C)(=O)=O)c1 [Example N6]	TYK2-JH2 (aa 575-869, in-house) protein (Homo sapiens, UniProt P29597)	pIC50	10.41
CCOc1cc(Nc2cc(NC(C)=O)ncc2-c2ccn(CC)n2)nc(S(C)(=O)=O)c1 [Example M18]	TYK2-JH2 (aa 575-869, in-house) protein (Homo sapiens, UniProt P29597)	pIC50	10.59
CC(=O)Nc1cc(Nc2cc(OC(C)C)cc(S(C)(=O)=O)n2)c(-c2cc3c(cn2)NCCO3)cn1 [Example Q4]	TYK2-JH2 (aa 575-869, in-house) protein (Homo sapiens, UniProt P29597)	pIC50	10.43
CC(=O)Nc1cc(Nc2cccc(S(C)(=O)=O)c2)c(-c2ccn(C3CCOC3)n2)cn1 (stereo not drawn) [Example M30]	TYK2-JH2 (aa 575-869, in-house) protein (Homo sapiens, UniProt P29597)	pIC50	10.31
CC(=O)Nc1cc(Nc2cc(OC(C)C)cc(S(C)(=O)=O)n2)c(-c2ccc(C#N)cn2)cn1 [Example A17]	TYK2-JH2 (aa 575-869, in-house) protein (Homo sapiens, UniProt P29597)	pIC50	10.55
CC(=O)Nc1cc(Nc2cc(OCCO)cc(S(C)(=O)=O)n2)c(-c2ccc(N3CCOCC3=O)cn2)cn1 [Example G3]	TYK2-JH2 (aa 575-869, in-house) protein (Homo sapiens, UniProt P29597)	pIC50	10.30
CC(=O)Nc1cc(Nc2cc(OCC(C)O)cc(S(C)(=O)=O)n2)c(-c2cc(N3CCOCC3)n(C)n2)cn1 (stereo not drawn) [Example O3]	TYK2-JH2 (aa 575-869, in-house) protein (Homo sapiens, UniProt P29597)	pIC50	10.51
CC(=O)Nc1cc(Nc2cc(OC3CCCC3)cc(S(C)(=O)=O)n2)c(-c2ccn(C)n2)cn1 [Example J45]	TYK2-JH2 (aa 575-869, in-house) protein (Homo sapiens, UniProt P29597)	pIC50	10.55
CC(=O)Nc1cc(Nc2cc(OC3CCOC3)cc(S(C)(=O)=O)n2)c(-c2ccn(C)n2)cn1 (stereo not drawn) [Example J46]	TYK2-JH2 (aa 575-869, in-house) protein (Homo sapiens, UniProt P29597)	pIC50	10.48
CCn1ccc(-c2cnc(NC(C)=O)cc2Nc2cc(C(F)(F)F)cc(S(C)(=O)=O)c2)n1 [Example M13]	TYK2-JH2 (aa 575-869, in-house) protein (Homo sapiens, UniProt P29597)	pIC50	9.96
COC(C)COc1cc(Nc2cc(NC(C)=O)ncc2-c2ccn(C)n2)nc(S(C)(=O)=O)c1 (stereo not drawn) [Example J13]	TYK2-JH2 (aa 575-869, in-house) protein (Homo sapiens, UniProt P29597)	pIC50	10.27
COc1cc(S(C)(=O)=O)nc(Nc2cc(NC(C)=O)ncc2-c2ccc(F)cn2)c1OC [Example F23]	TYK2-JH2 (aa 575-869, in-house) protein (Homo sapiens, UniProt P29597)	pIC50	10.70
CC(=O)Nc1cc(Nc2cc(OCC3CC3)cc(S(C)(=O)=O)n2)c(-c2ccc(N3C[C@@H](C)O[C@@H](C)C3)cn2)cn1 [Example C5]	TYK2-JH2 (aa 575-869, in-house) protein (Homo sapiens, UniProt P29597)	pIC50	10.49
CC(=O)Nc1cc(Nc2cccc(S(N)(=O)=O)n2)c(-c2ccn(C)n2)cn1 [Example J4]	TYK2-JH2 (aa 575-869, in-house) protein (Homo sapiens, UniProt P29597)	pIC50	10.55
CC(=O)Nc1cc(Nc2cc(OC(C)C)cc(S(C)(=O)=O)n2)c(-c2ccc(N3CC4CC3CO4)cn2)cn1 (stereo not drawn) [Example B16]	TYK2-JH2 (aa 575-869, in-house) protein (Homo sapiens, UniProt P29597)	pIC50	10.52
CC(=O)Nc1cc(Nc2cc(N3CCOC[C@@H]3C)cc(S(C)(=O)=O)n2)c(-c2ccc(N3C[C@@H](C)O[C@@H](C)C3)cn2)cn1 [Example C23]	TYK2-JH2 (aa 575-869, in-house) protein (Homo sapiens, UniProt P29597)	pIC50	10.66
CC(=O)Nc1cc(Nc2cc(C3CCN(CC(F)(F)F)CC3)cc(S(C)(=O)=O)n2)c(-c2ccc3c(n2)OCC(C)(C)O3)cn1 [Example Q60]	TYK2-JH2 (aa 575-869, in-house) protein (Homo sapiens, UniProt P29597)	pIC50	10.23
COCc1ccc(-c2cnc(NC(C)=O)cc2Nc2cc(C)cc(S(C)(=O)=O)n2)nc1 [Example E2]	TYK2-JH2 (aa 575-869, in-house) protein (Homo sapiens, UniProt P29597)	pIC50	10.77
CCOc1cc(Nc2cc(NC(C)=O)ncc2-c2ccc(OCCOC)cn2)nc(S(C)(=O)=O)c1 [Example D9]	TYK2-JH2 (aa 575-869, in-house) protein (Homo sapiens, UniProt P29597)	pIC50	10.68
CC(=O)Nc1cc(Nc2cc(N3CCCC3)cc(S(C)(=O)=O)n2)c(-c2ccc3c(n2)OCC(C)(C)O3)cn1 [Example Q104]	TYK2-JH2 (aa 575-869, in-house) protein (Homo sapiens, UniProt P29597)	pIC50	10.54
CCS(=O)(=O)c1cc(OC(C)C)cc(Nc2cc(NC(C)=O)ncc2-c2ccc(C(C)(C)O)cn2)n1 [Example H36]	TYK2-JH2 (aa 575-869, in-house) protein (Homo sapiens, UniProt P29597)	pIC50	10.66
CC(=O)Nc1cc(Nc2cc(OC3CC3)cc(S(C)(=O)=O)c2)c(-c2ccn(C)n2)cn1 [Example J36]	TYK2-JH2 (aa 575-869, in-house) protein (Homo sapiens, UniProt P29597)	pIC50	10.37
COCCOc1cc(Nc2cc(NC(C)=O)ncc2-c2ccc(N3CCOCC3=O)cn2)nc(S(C)(=O)=O)c1 [Example G4]	TYK2-JH2 (aa 575-869, in-house) protein (Homo sapiens, UniProt P29597)	pIC50	10.32
CC(=O)Nc1cc(Nc2cc(OC(F)F)cc(S(C)(=O)=O)c2)c(-c2ccn(C)n2)cn1 [Example J62]	TYK2-JH2 (aa 575-869, in-house) protein (Homo sapiens, UniProt P29597)	pIC50	10.43
CC(=O)Nc1cc(Nc2cc(F)cc(S(C)(=O)=O)c2)c(-c2ccn(C)n2)cn1 [Example J30]	TYK2-JH2 (aa 575-869, in-house) protein (Homo sapiens, UniProt P29597)	pIC50	10.27
